Assay: Antioxidant activity assessed as reduction of microsomal lipid per-oxidation level by measuring formation of malondialdehyde at 200 ug/ml after 90 mins by spectrophotometric analysis relative to control
Format: functional
Parameters: scale not given: the % may be the effect or the level left
Hi there, I'd appreciate the recorded Activity for every entry that follows.
Answers are plain numbers, in %.

Example compounds with recorded Activity:
| compound | Activity [%] |
| --- | --- |
| C=C1CC[C@@H]2[C@](C)(COS(=O)(=O)c3c(C)cc(C)cc3C)[C@H](O)CC[C@@]2(C)[C@@H]1C/C=C1/C(=O)OC[C@H]1O | 26 |
| C=C1CC[C@@H]2[C@](C)(COS(=O)(=O)c3ccc(C)cc3)[C@H](O)CC[C@@]2(C)[C@@H]1C/C=C1/C(=O)OC[C@H]1OC(C)=O | 29 |

Would you be so kind as to report Activity for each listed record?
1. C=C1CC[C@@H]2[C@]3(C)COC(C)(C)O[C@@H]3CC[C@@]2(C)[C@@H]1C/C=C1/C(=O)OC[C@H]1OC(C)=O
2. C=C1CC[C@@H]2[C@](C)(CO)[C@H](O)CC[C@@]2(C)[C@@H]1C/C=C1\C=COC1=O
3. C=C1CC[C@@H]2[C@](C)(COC(C)=O)[C@H](OC(C)=O)CC[C@@]2(C)[C@@H]1C/C=C1/C(=O)OC[C@H]1OC(C)=O
4. C=C1CC[C@@H]2[C@](C)(CO)[C@H](O)CC[C@@]2(C)[C@@H]1CCC1=CCOC1=O [DEOXYANDROGRAPHOLIDE]

Response line:
[26, 13, 11, 13]

Would you be so kind as to report Activity for each listed record?
1. C=C1CC[C@@H]2[C@](C)(CO)[C@H](O)CC[C@@]2(C)[C@@H]1C/C=C1/C(=O)OC[C@H]1OC(C)=O
2. C[C@]1(CO)[C@H]2CC[C@@]3(CO3)[C@@H](C/C=C3/C(=O)OC[C@H]3O)[C@]2(C)CC[C@H]1O
3. C=C1CC[C@@H]2[C@](C)(CO)[C@H](O)CC[C@@]2(C)[C@@H]1C/C=C1/C(=O)OC[C@H]1O [ANDROGRAPHOLIDE]
4. C=C1CC[C@H]2[C@@](C)(CCC(=O)[C@@]2(C)C=O)[C@@H]1C/C=C1/C(=O)OC[C@H]1O
5. CC1CC[C@@H]2[C@](C)(CO)[C@H](O)CC[C@@]2(C)[C@@H]1CCC1C(=O)OC[C@H]1O (some centres undefined)

Response line:
[19, 14, 38, 14, 14]

Would you be so kind as to report Activity for each listed record?
1. C=C1CC[C@@H]2[C@](C)(CO)[C@H](O)CC[C@@]2(C)[C@@H]1CCC1C(=O)OC[C@H]1O (some centres undefined)
2. C=C1CC[C@@H]2[C@]3(C)COC(C)(C)O[C@@H]3CC[C@@]2(C)[C@@H]1C/C=C1/C(=O)OC[C@H]1O
3. C=C1CC[C@@H]2[C@](C)(COS(=O)(=O)c3ccc(C)cc3)[C@H](O)CC[C@@]2(C)[C@@H]1C/C=C1/C(=O)OC[C@H]1O

Response line:
10
17
40
